# System: 786-0 renal
# MEASUREMENT_NOTES: NCI-60 one-dose screen, 48 h
# TEST_CONDITIONS: 10 µM unless noted
Compounds without any hit were thinned out: in the full panel of roughly 83,000, 20% have a hit. The source made the active and inactive calls. Rule for the calls: active = growth percent below 10; inactive = the rest.
Bench note: report the call from active, inactive

- CCN(CC)CC(=O)Nc1c(C)cc(C(=O)NN)cc1C: inactive
- O=C(N/N=C/c1ccc([N+](=O)[O-])o1)c1ccc(O)cc1: inactive
- O=[N+]([O-])c1ccc(N=Nc2c(NNc3ccc([N+](=O)[O-])cn3)cc(S(=O)(=O)O)c3ccccc23)nc1: inactive

Assay outcome for COc1cc2ncnc(Nc3ccc(S(=O)(=O)Nc4nccs4)cc3)c2cc1OCCCN1CCOCC1 : what was it?
inactive

Assay outcome for C[N+](C)(C)CC(=O)N/N=C\c1ccco1 : what was it?
inactive

Assay outcome for C/C(=N\NC(=O)CSc1nc2ccccc2c(=O)n1CCc1ccc(S(N)(=O)=O)cc1)c1ccc(Br)cc1 : what was it?
inactive

Assay outcome for CCCCOC(=O)c1cc(O)c(O)c(O)c1 : what was it?
inactive

Assay outcome for COc1cc(/C=N/NC(=O)Cn2c(-c3ccc(C)o3)nc3ccccc32)ccc1OCc1ccccc1 : what was it?
inactive

Assay outcome for O=C(/C=C/c1ccccc1)c1c[nH]c2ccccc2c1=O : what was it?
active

Assay outcome for COc1ccc2c(c1)N(Cc1ccc(Cl)cc1)CCC2N1CCCC1=O (stereo not given) : what was it?
inactive

----------
# System: 786-0 renal
# MEASUREMENT_NOTES: NCI-60 one-dose screen, 48 h
# TEST_CONDITIONS: 10 µM unless noted
About 83,000 compounds went through this panel and 20% of them were active in at least one assay; those are over-represented in the sample as a whole. The source made the active and inactive calls. How the source made its calls: active means growth percent below 10; inactive means the rest.
Bench note: report the call from YES for active, NO for inactive

Assay outcome for O=C1/C(=C/c2ccccc2)SC(=Nc2ccccc2)N1Nc1ccccc1 : what was it?
YES

Assay outcome for CCCCCCCCCCCCCC1=NC(C)(C)CN1C(C)C : what was it?
YES

----------
# Tested on: SK-MEL-28 melanoma
# MEASUREMENT_NOTES: NCI-60 one-dose screen, 48 h (100 = growth as untreated, 0 = no growth, -100 = all killed)
# TEST_CONDITIONS: 10 µM unless noted
Compounds without any hit were thinned out: in the full panel of roughly 83,000, 20% have a hit.
Binarize growth at 90%; below is fulfilled, at or above is not fulfilled.

Would you please look over these solved cases?
• O=C(Nc1ccc(Cl)cc1)c1cc(-c2ccc(Cl)cc2)c2sc(=O)[nH]c2n1 = fulfilled
• Cc1nc(N)nc2c1CCC(Nc1ccccc1)S2 (stereo not drawn) = not fulfilled
• COc1ccc(/C=C/c2nc3ccccc3c(=O)n2-c2ccc(C#Cc3ccc(C(C)(C)C)cc3)cc2C)c(OC)c1 = not fulfilled
• Cc1cc(-c2ccc(N=Nc3c(S(=O)(=O)O)cc4cc(S(=O)(=O)O)cc(O)c4c3O)c(C)c2)ccc1N=Nc1c(S(=O)(=O)O)cc2cc(S(=O)(=O)O)cc(O)c2c1O = not fulfilled
• CN(C)c1nc(-c2cccs2)n2nc(-c3ccc(Cl)cc3)cc2n1 = fulfilled
• CC(C)CCC(=O)[C@@H](C)[C@H]1[C@@H](OC2OCC(O)C(O)C2NS(C)(=O)=O)C[C@H]2[C@@H]3CC=C4C[C@@H](O)CC[C@]4(C)[C@H]3CC[C@]12C (stereo partly drawn) = fulfilled

Does the reported growth of COc1ccc(-n2nc(C(=O)Nc3ccc(F)cc3)nc2-c2cc(OC)c(OC)c(OC)c2)cc1 stay below 90%?
not fulfilled

Does the reported growth of COc1cc(C2CC(c3ccc(Cl)cc3)=NN2C(C)=O)ccc1Oc1nc2c(c(=O)n(C)c(=O)n2C)n1C (stereo not drawn) stay below 90%?
fulfilled
